Listing: log10 Kd of selected binders
Molecular target: T1, HCV Core 134-171-TT Peptide (hepatitis C virus (HCV-1 numbering) …)
T1 construct: also called ALRZ-9 peptide
Experiment: SPR, captured mAb, peptide analyte
quantity.name: log10 Kd (log10 of the value in nM)

binder	log10 Kd
HCV 208B-672 (antibody, V domains shown) VH: EVKLVESGGSLVQPGGSLKLSCAASGFNFNTYAMSWVRQTPEKRLEWVAYISNGGGNTYYVDTVKGRFTISRDNAKNTLYLRMSSLKSEDTAMYYCARHGLYWGYSMDYWGQGTSVTVSS VL: DIQMTQSPSSLSASLGERVSLTCRASQDIGGSINWLQQEPDGTIKRLIYATSSLDSGVPKRFSGSRSGSDYSLTISSLESEDFVDYYCLQYASSPPTFGGGTKLEIKR	-0.80
HCV 208A-134 (antibody, V domains shown) VH: QGQMQQSGAELAKPGASVKLSCKTSGFTFSSSYISWLKQKPGQSLEWIAWIYAGTGNTNYNQKFTDKAQLTVDTSSSTAYMQLSSLTTEDSAIYYCAISGTGFTYWGQGTLVTVSA VL: EVLMTQSPLSLPVSLGDQASISCRSSQSLEHTNGNTYLEWFLQRPGQPPKLLIYKVSSRFSGVPDRFSGSGSGTDFTLKISRVEAEDLGVYYCFQGSHVPFTFGSGTKLAIKR	0.32
HCV 208A-352 (antibody, V domains shown) VH: QGQMQQSGAELVKPGASVKLSCKTSGFTFSSSFISWLKQKPGQSLEWIAWIYAGTGNTNYNQKFTDKAQLTVDTSSSTAYMQFSSLTTEDSAIYYCAISGTGFTYWGQGTLVTVSA VL: DVLMAQTPLSLPVTLGDQASISCRSSQSLVHSNGNTYLEWFLQKPGQSPKLLIYNVSNRFSGVPDRFSGSGSGTDFTLKISRVEAEDLGVYYCFQGSHVPLTFGSGTKLEIKR	-0.28
HCV 208B-1094 (antibody, V domains shown) VH: EVQLQQSGPELVKPGASVKISCKTSGYTFTEYAMHWMKQSHGKSLEWIGGINPTNGDTIYNQRFKDKAKLTVDRSSSTAYMELRSLTSDDSALFYCARRELDYFASWGQGTTLTVSS VL: DIVLTQSPASLIVSLGQTATISCRASQSLSTSRFSYVHWIQQKPGQPPKLLIKYASNLESGVPVRFSGSGSGTDFTLNIHPVEEEDTATYFCQHSWEFPFTFGSGTKLKIKR	-0.80
HCV 208A-830 (antibody, V domains shown) VH: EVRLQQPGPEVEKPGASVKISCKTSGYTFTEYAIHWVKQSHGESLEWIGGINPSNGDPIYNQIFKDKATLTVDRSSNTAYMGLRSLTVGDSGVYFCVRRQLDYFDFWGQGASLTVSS VL: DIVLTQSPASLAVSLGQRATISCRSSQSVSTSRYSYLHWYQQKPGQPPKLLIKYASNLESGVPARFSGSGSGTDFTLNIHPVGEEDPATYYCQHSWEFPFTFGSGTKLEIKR	-0.80
HCV 208B-1024 (antibody, V domains shown) VH: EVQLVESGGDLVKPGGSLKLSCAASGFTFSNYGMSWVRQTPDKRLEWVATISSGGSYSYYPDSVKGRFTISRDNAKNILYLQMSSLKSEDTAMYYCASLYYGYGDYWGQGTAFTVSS VL: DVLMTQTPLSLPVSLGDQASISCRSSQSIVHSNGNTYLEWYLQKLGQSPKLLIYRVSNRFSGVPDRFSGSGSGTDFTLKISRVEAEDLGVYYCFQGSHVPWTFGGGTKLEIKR	1.18
HCV 208B-281 (antibody, V domains shown) VH: QGQLQQSGAELVKPGASVKLSCKTSGFTFSSSYISWLKQRPGQSLEWIAWIYAGTGGTNYNQKFTDKAQLTVDTSSSTAYMQFSSLTTEDSAIYYCAISGTGFIYWGQGTLVTVSA VL: DVLMTQTPLSLPVSLGDQASISCRSSQSLVHNNGNTYLEWFLQKPGQSPKLLIYKVSNRFSGVPDRFSGSGSGTDFTLKISRVEAEDLGVYYCFQGSHVPFTFGSGTKLEIKR	1.98
HCV 208B-251 (antibody, V domains shown) VH: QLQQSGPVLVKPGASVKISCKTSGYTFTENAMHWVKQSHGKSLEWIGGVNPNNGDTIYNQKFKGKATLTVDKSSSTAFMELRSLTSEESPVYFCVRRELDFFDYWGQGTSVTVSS VL: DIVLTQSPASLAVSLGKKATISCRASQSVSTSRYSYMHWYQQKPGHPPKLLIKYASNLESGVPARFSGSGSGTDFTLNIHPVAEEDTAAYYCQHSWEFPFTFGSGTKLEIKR	-0.24
HCV 208B-612 (antibody, V domains shown) VH: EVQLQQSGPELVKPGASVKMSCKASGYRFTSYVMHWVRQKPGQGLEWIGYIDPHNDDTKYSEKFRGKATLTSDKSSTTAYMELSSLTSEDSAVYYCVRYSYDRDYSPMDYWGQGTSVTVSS VL: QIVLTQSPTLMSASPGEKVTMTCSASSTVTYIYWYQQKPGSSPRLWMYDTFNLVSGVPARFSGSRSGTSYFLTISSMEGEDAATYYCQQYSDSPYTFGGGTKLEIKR	-0.46

// provenance: patent US20170052184A1
